# assaySystem: NHERF4_1, Q86UT5-2
# Sequence (Q86UT5 other isoform, or with tags, fused parts or gaps): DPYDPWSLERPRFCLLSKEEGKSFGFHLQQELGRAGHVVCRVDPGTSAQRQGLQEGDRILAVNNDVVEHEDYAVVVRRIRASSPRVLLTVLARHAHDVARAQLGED
# protocolDetails: holdup assay
# Parameters: key: below the threshold = too weak to quantify, mostly under pKd 3.1 to 4
# measurementConditions: plain residues with an end cap or a label only (N-terminal biotin on a linker: ado-ado)
propertyLabel: pKd
Write no unit; give the number alone.

Consider the worked cases shown below.
> print(dat)
                                     binder  obsvalue
1                IPLDGETEEL [MYOZ1, Q9NP98]       4.2
2  VYPNAKVELV [PDLIM4_iso2, P50479;P50479-1]      3.98
3              SAKVRTVTSV [RASL11B, Q9BPW5]      3.77
4                TSSMRGMDAV [RSRC2, Q7L4I2]      3.91
5      YLEPVLSSEL [ATP2A2, P16615;P16615-3]      4.39
6              PRISRSQSEL [CCDC134, Q9H6E4]      3.86

Prompt: Param item = SAAKVLTSMC [GHRHR, Q02643] ; retrieve measured pKd.
Response: 4.35

Prompt: Here is the next binder: PDGQCTVTEV [RNF146, Q9NTX7]
Response: 3.89

Prompt: For KSGKQTMLVV [TRIM29, Q14134] then?
Response: 3.6

Hey, just so you know, these numbers are from paper PMC9482650.
